B1: WDFY1 (parent)
chain: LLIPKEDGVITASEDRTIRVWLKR

Variants of: B1
test-method-notes: protein stability index of a GFP-peptide fusion (GPS, HEK-293T) (PSI 1-6); higher = more stable;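 further: lentivirally expressed fusions sorted by FACS into six bins by GFP to DsRed ratio, PSI derived from sequencing read proportions per bin multiplied by bin number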
experimental-parameters: c terminus: a fixed tail appended
Each record here notes measured protein stability index.
Give the figure by itself; no unit, no explanation.

[
  {
    "mutation-name": "L1M",
    "protein stability index": 3.12
  },
  {
    "mutation-name": "I10R",
    "protein stability index": 2.07
  },
  {
    "mutation-name": "D7K",
    "protein stability index": 1.56
  }
]

// query Look up protein stability index: `T11S`
// result 2.42

// query Look up protein stability index: `R16K`
// result 1.74

// query Look up protein stability index: `T11C`
// result 2.7

// query Look up protein stability index: `A12G`
// result 1.93

// query Look up protein stability index: `I10Y`
// result 1.91

// query Look up protein stability index: `A12N`
// result 2.56

// query Look up protein stability index: `R24Q`
// result 2.71

// query Look up protein stability index: `E6H`
// result 2.67

// query Look up protein stability index: `T17W`
// result 2.16

// query Look up protein stability index: `K5W`
// result 1.41

// query Look up protein stability index: `G8L`
// result 1.03

// query Look up protein stability index: `L1K`
// result 2.74

// query Look up protein stability index: `E6A`
// result 2.59

// query Look up protein stability index: `V9C`
// result 1.65

These entries and their values trace back to the supplement of paper PMC10567573.
